Assay: Toxicity liver stage against HepG2, at 10uM
Type: cell-based
Set-up: test concentration 10 uM, cell line HepG2-A16-CD81EGFP
Conditions: human, HepG2-A16-CD81EGFP cells; read-out: INHIBITION
Value kind: cytotoxicity at 10 µM (%)
Could you give me the number in %? Just the number is fine.

These solved cases illustrate the format of a correct answer.
INSERT INTO measurements (compound, value_kind, meas_value) VALUES
  ('Cc1nc(CNCc2ccc(N3CCC(CO)CC3)nc2)cs1', 'cytotoxicity at 10 µM', 1.58),
  ('CNC(=O)c1cn[nH]c1C1CCN(Cc2sccc2C)C1 (stereo unspecified)', 'cytotoxicity at 10 µM', -21.2),
  ('COC(=O)CCN(CC1CCCO1)C(=O)CCc1ccc(OC)cc1 (stereo unspecified)', 'cytotoxicity at 10 µM', 7.39),
  ('Cn1cc(CN2C[C@@H]3COC[C@]3(COc3ccc(C#N)cn3)C2)cn1', 'cytotoxicity at 10 µM', -11.3);

## Task Quote cytotoxicity at 10 µM reported for COc1ccc(C(=O)N2CC(=O)N(C3CCC3)CC(O)C2)cc1OC (stereo unspecified) please.
## Result 4.35

## Task Quote cytotoxicity at 10 µM reported for Cc1ccc(CN2C(=O)OCC2CO)c2ccccc12 (stereo unspecified) please.
## Result -5.21

Measured values drawn from ChEMBL document CHEMBL4513216 for this set.
